# tested.on: human plasma kallikrein (Homo sapiens, UniProt P03952)
# Sequence (P03952 391-638 limits assumed): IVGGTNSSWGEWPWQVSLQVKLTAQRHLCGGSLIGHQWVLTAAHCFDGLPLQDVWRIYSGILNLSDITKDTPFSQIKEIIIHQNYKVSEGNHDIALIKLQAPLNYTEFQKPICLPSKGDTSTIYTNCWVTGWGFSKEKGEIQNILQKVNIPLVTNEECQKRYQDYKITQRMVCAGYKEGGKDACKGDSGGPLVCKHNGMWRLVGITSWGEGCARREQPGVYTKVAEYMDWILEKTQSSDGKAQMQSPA
# Sequence (P03952 20-390 partner limits assumed): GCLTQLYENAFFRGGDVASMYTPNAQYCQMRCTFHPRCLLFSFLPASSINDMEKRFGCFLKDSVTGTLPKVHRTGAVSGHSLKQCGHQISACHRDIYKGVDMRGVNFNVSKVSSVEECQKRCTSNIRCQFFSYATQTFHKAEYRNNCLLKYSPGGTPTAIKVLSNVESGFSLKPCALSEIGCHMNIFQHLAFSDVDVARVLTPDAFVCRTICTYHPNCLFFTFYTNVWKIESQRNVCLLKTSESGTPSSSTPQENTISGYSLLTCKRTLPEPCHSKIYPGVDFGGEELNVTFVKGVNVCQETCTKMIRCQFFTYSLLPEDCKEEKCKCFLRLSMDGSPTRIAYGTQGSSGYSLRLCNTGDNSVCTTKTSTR
# experiment: Kallikrein inhibition assay (FLINT) utilizing a quenched AMC peptide substrate Z-Gly-Pro-Arg-AMC
# Assay type: biochemical
# cond: kinetic (KIN) reads; values in nM; read-out: Kallikrein KIN Inh IC50
readout.kind: IC50 (nM)

I = C[C@H]1C[C@@H](c2ncc(-c3ccnc(F)c3)[nH]2)n2c1cc(-c1c(-n3cnnn3)ccc(Cl)c1F)cc2=O (stereo in doubt)
II = Cc1nc(N)c(F)cc1-c1cnc([C@H]2C[C@@H](C)c3nc(-c4c(-n5cnnn5)ccc(Cl)c4F)cc(=O)n32)[nH]1 (stereo in doubt)
III = C[C@@H]1C[C@@H](c2ncc(-c3ccc(N)nc3Cl)[nH]2)n2c1cc(-c1c(-n3cnnn3)ccc(Cl)c1F)cc2=O
IV = CNC(=O)c1ccc(-c2cnc([C@@H]3C[C@H](C)c4cc(-c5c(-n6cnnn6)ccc(Cl)c5F)cc(=O)n43)[nH]2)cn1
Kindly sort the 4 compounds above from the smallest to the largest IC50. Give the labels in the order specified.
III, I, IV, II

a = C[C@@H]1C[C@@H](c2ncc(-c3ccc(N)nc3F)[nH]2)n2c1cc(-c1c(-n3cnnn3)ccc(Cl)c1F)cc2=O
b = Cc1nc(N)cnc1-c1cnc([C@@H]2CC(C)c3nc(-c4c(-n5cnnn5)ccc(Cl)c4F)cc(=O)n32)[nH]1 (stereo partly drawn)
Between a and b , which one shows the smaller IC50 number? Use the label to indicate which entry you chose.
a
(a: 3.6 nM, b: 71.7 nM)

----------
# tested.on: human plasma kallikrein (Homo sapiens, UniProt P03952)
# experiment: Kallikrein inhibition assay (FLINT) utilizing a quenched AMC peptide substrate Z-Gly-Pro-Arg-AMC
# Assay type: biochemical
# cond: kinetic (KIN) reads; values in nM; read-out: Kallikrein KIN Inh IC50
readout.kind: IC50 (nM)

These solved cases illustrate the format of a correct answer.
[[record]]
compound = "CO[C@@H]1C[C@H](c2ncc(-c3ccc(N)nc3F)[nH]2)n2c1cc(-c1c(-n3cnnn3)ccc(Cl)c1F)cc2=O (relative stereo)"
readout_kind = "IC50"
unit_spec = "nM"
numeric_readout = 14

[[record]]
compound = "[2H]C([2H])([2H])OC(=O)Nc1ccc(-c2cnc(C3CC4(CC4)c4nc(-c5c(-n6cnnn6)ccc(Cl)c5F)cc(=O)n43)[nH]2)cc1 (single isomer, unassigned) [Example 71]"
readout_kind = "IC50"
unit_spec = "nM"
numeric_readout = 736

[[record]]
compound = "COc1cc(-c2cnc([C@H]3C[C@H](C)c4nc(-c5c(-n6cnnn6)ccc(Cl)c5F)cc(=O)n43)[nH]2)ccn1 (stereo in doubt)"
readout_kind = "IC50"
unit_spec = "nM"
numeric_readout = 7.6


I = COc1cc(-c2cnc([C@@H]3C[C@@H](C)c4nc(-c5c(-n6cnnn6)ccc(Cl)c5F)cc(=O)n43)[nH]2)ccn1 (stereo in doubt)
II = COC(=O)Nc1ccc(-c2cnc([C@@H]3C[C@@H](C)c4cc(-c5c(-n6cnnn6)ccc(Cl)c5F)cc(=O)n43)[nH]2)cc1
III = [2H]C([2H])([2H])OC(=O)Nc1ccc(-c2cnc(C3CC4(CC4)c4nc(-c5c(-n6cnnn6)ccc(Cl)c5F)cc(=O)n43)[nH]2)cc1 (single isomer, unassigned) [Example 72]
IV = C[C@H]1C[C@@H](c2ncc(-c3cnc(N)s3)[nH]2)n2c1cc(-c1c(-n3cnnn3)ccc(Cl)c1F)cc2=O
Rank items: key IC50, increasing. Give the labels in the order specified.
II, III, I, IV
(II: 1.3 nM, III: 3.3 nM, I: 135 nM, IV: 240 nM)

I = Nc1ccc(-c2cnc([C@@H]3CC4(CC4)c4nc(-c5c(-n6cnnn6)ccc(Cl)c5F)cc(=O)n43)[nH]2)c(F)n1
II = O=c1cc(-c2c(-n3cnnn3)ccc(Cl)c2F)nc2n1[C@H](c1nc(-c3ccnc(OCC(O)C(F)(F)F)c3F)c[nH]1)CC21CC1 (single isomer, unassigned) [Example 73]
Param pair: I , II . Output: the one whose IC50 is numerically greater. Use the label to indicate which entry you chose.
II
(II: 54.8 nM, I: 16.8 nM)

1 = Nc1ncc(-c2cnc([C@@H]3CC4(CC4)c4cc(-c5c(-n6cnnn6)ccc(Cl)c5F)cc(=O)n43)[nH]2)s1
2 = Nc1ccc(-c2cnc([C@@H]3CC4(CC4)c4cc(-c5c(-n6cnnn6)ccc(Cl)c5F)cc(=O)n43)[nH]2)c(F)n1
Param pair: 1 , 2 . Output: the one whose IC50 is numerically greater. Use the label to indicate which entry you chose.
1

----------
# tested.on: human plasma kallikrein (Homo sapiens)
# experiment: Kallikrein inhibition assay (FLINT) utilizing a quenched AMC peptide substrate Z-Gly-Pro-Arg-AMC
# Format: biochemical
# cond: kinetic (KIN) reads; values in nM; read-out: Kallikrein KIN Inh IC50
readout.kind: IC50 (nM)

[[record]]
compound = "C[C@H]1C[C@@H](c2ncc(-c3cnc(N)nc3)[nH]2)n2c1nc(-c1c(-n3cnnn3)ccc(Cl)c1F)cc2=O (stereo in doubt) [Example 119]"
tested_on = "human plasma kallikrein (Homo sapiens)"
unit_spec = "nM"
numeric_readout = 287

[[record]]
compound = "C[C@H]1C[C@@H](c2ncc(-c3ccnc(N)n3)[nH]2)n2c1cc(-c1c(-n3cnnn3)ccc(Cl)c1F)cc2=O [Example 20]"
tested_on = "human plasma kallikrein (Homo sapiens)"
unit_spec = "nM"
numeric_readout = 295

[[record]]
compound = "COC(=O)Nc1ccc(-c2cnc([C@@H]3C[C@H](C)c4nc(-c5c(-n6cnnn6)ccc(Cl)c5F)cc(=O)n43)[nH]2)cn1 (stereo in doubt) [Example 116]"
tested_on = "human plasma kallikrein (Homo sapiens)"
unit_spec = "nM"
numeric_readout = 26.8


A = Cc1cc(-c2cnc([C@H]3C[C@H](C)c4cc(-c5c(-n6cnnn6)ccc(Cl)c5F)cc(=O)n43)[nH]2)ccn1 (stereo in doubt) [Example 42]
B = COC(=O)Nc1ccc(-c2cnc([C@H]3C[C@H](C)c4nc(-c5c(-n6cnnn6)ccc(Cl)c5F)cc(=O)n43)[nH]2)cc1 (stereo in doubt) [Example 124]
Between A and B , which one shows the smaller IC50 number? Use the label to indicate which entry you chose.
A

----------
# tested.on: Factor XIa (Homo sapiens, UniProt P03951)
# Sequence (P03951 388-625 limits assumed): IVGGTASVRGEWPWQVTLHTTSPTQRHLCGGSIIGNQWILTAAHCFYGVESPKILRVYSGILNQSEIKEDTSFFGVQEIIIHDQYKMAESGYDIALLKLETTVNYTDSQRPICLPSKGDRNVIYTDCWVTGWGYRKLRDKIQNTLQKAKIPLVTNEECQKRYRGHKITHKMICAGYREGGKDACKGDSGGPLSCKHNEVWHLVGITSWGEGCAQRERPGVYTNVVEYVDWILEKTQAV
# Sequence (P03951 19-387 partner limits assumed): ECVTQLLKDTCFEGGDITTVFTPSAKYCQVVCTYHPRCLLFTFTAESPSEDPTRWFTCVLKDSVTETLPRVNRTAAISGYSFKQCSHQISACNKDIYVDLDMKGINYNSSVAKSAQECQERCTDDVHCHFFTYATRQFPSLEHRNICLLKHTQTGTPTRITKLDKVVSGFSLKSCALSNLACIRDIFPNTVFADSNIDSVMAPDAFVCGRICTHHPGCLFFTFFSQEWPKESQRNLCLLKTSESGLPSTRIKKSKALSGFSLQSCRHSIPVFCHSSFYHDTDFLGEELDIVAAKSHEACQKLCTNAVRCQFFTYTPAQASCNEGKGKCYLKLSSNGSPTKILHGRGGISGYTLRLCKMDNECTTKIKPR
# experiment: Factor XIa inhibition assay (FLINT) utilizing a fluorophore-quencher pair peptide substrate 5Fam-[…]-K5Tamra
# Type: biochemical
# cond: kinetic (KIN) reads; values in nM; read-out: FXIa KIN Inh IC50
readout.kind: IC50 (nM)

These solved cases illustrate the format of a correct answer.
[[record]]
molecule = "Nc1ccc(-c2cnc([C@H]3CC4(CC4)c4nc(-c5c(-n6cnnn6)ccc(Cl)c5F)cc(=O)n43)[nH]2)c(F)n1"
readout_kind = "IC50"
numeric_readout = 231

[[record]]
molecule = "COC(=O)Nc1ccc(-c2cnc([C@@H]3C[C@H](C)c4nc(-c5c(-n6cnnn6)ccc(Cl)c5F)cc(=O)n43)[nH]2)cc1 (stereo in doubt)"
readout_kind = "IC50"
numeric_readout = 0.5


1 = C[C@H]1C[C@H](c2ncc(-c3ccc(N)nc3Cl)[nH]2)n2c1nc(-c1c(-n3cnnn3)ccc(Cl)c1F)cc2=O
2 = C[C@@H]1C[C@H](c2ncc(-c3ccnc(F)c3)[nH]2)n2c1cc(-c1c(-n3cnnn3)ccc(Cl)c1F)cc2=O (stereo in doubt)
Param pair: 1 , 2 . Output: the one whose IC50 is numerically greater. Use the label to indicate which entry you chose.
2
(2: 12.4 nM, 1: 0.5 nM)

----------
# tested.on: human plasma kallikrein (Homo sapiens)
# experiment: Kallikrein inhibition assay (FLINT) utilizing a quenched AMC peptide substrate Z-Gly-Pro-Arg-AMC
# Assay type: biochemical
# cond: kinetic (KIN) reads; values in nM; read-out: Kallikrein KIN Inh IC50
readout.kind: IC50 (nM)

[[record]]
compound = "C[C@H]1C[C@H](c2ncc(-c3ccnc(N)c3F)[nH]2)n2c1nc(-c1c(-n3cnnn3)ccc(Cl)c1F)cc2=O (relative stereo)"
readout_kind = "IC50"
numeric_readout = 27.7


A = O=c1cc(-c2c(-n3cnnn3)ccc(Cl)c2F)nc2n1C(c1nc(F)c(-c3ccnc(CO)c3F)[nH]1)CC21CC1 (racemic)
B = C[C@H]1C[C@@H](c2ncc(-c3cc(N)ncc3F)[nH]2)n2c1cc(-c1c(-n3cnnn3)ccc(Cl)c1F)cc2=O
Param pair: A , B . Output: the one whose IC50 is numerically greater. Use the label to indicate which entry you chose.
B

----------
# tested.on: human plasma kallikrein (Homo sapiens)
# experiment: Kallikrein inhibition assay (FLINT) utilizing a quenched AMC peptide substrate Z-Gly-Pro-Arg-AMC
# Type: biochemical
# cond: kinetic (KIN) reads; values in nM; read-out: Kallikrein KIN Inh IC50
readout.kind: IC50 (nM)

[[record]]
compound = "C[C@H]1C[C@@H](c2ncc(-c3ccn4nccc4c3)[nH]2)n2c1cc(-c1c(-n3cnnn3)ccc(Cl)c1F)cc2=O (stereo in doubt) [Example 53]"
unit_spec = "nM"
numeric_readout = 54

[[record]]
compound = "C[C@H]1C[C@@H](c2ncc(-c3ccc(NS(C)(=O)=O)cc3)[nH]2)n2c1cc(-c1c(-n3cnnn3)ccc(Cl)c1F)cc2=O [Example 11]"
unit_spec = "nM"
numeric_readout = 11.4

[[record]]
compound = "CC(=O)Nc1ncc(-c2cnc(C3CC4(CC4)c4cc(-c5c(-n6cnnn6)ccc(Cl)c5F)cc(=O)n43)[nH]2)s1 (stereo not drawn) [Example 22]"
unit_spec = "nM"
numeric_readout = 294


a = C[C@H]1C[C@@H](c2ncc(-c3ncc(N)nc3C3CC3)[nH]2)n2c1nc(-c1c(-n3cnnn3)ccc(Cl)c1F)cc2=O (relative stereo) [Example 91]
b = O=c1cc(-c2c(-n3cnnn3)ccc(Cl)c2F)nc2n1[C@H](c1nc(-c3ccnc(OCC(O)C(F)(F)F)c3F)c[nH]1)CC21CC1 (single isomer, unassigned) [Example 74]
c = CC(C)(O)COc1nccc(-c2cnc(C3CC4(CC4)c4nc(-c5c(-n6cnnn6)ccc(Cl)c5F)cc(=O)n43)[nH]2)c1F (single isomer, unassigned) [Example 70]
Rank items: key IC50, increasing. Give the labels in the order specified.
b, c, a

Values compiled from patent US20230097157A1.
